Can you tell me ID50 for the items I'm about to list?
Species: Canis lupus familiaris
Experiment: Inhibition of dog-heart microsomal Na(+)/K(+) ATPase using ATP substrate
Output spec: scalar in µmol, unitless text.

Value of measured ID50 for the entry C[C@]12CC[C@@](O)(C(O)CO)C[C@H]1CC[C@@H]1[C@@H]2CC[C@]2(C)[C@@H](C3=CC(=O)OC3)CC[C@]12O (some centres undefined) : 7.8

Value of measured ID50 for the entry "C[C@]1(O)CC[C@@]2(C)[C@H](CC[C@@H]3[C@@H]2CC[C@]2(C)[C@@H](C4=CC(=O)OC4)CC[C@]32O)C1" : 0.32

Value of measured ID50 for the entry "C[C@]12CC[C@H](O)C[C@H]1CC[C@@H]1[C@@H]2CC[C@]2(C)[C@@H](C3=CC(=O)OC3)CC[C@]12O" : 0.035

Value of measured ID50 for the entry "C#C[C@]1(O)CC[C@@]2(C)[C@H](CC[C@@H]3[C@@H]2CC[C@]2(C)[C@@H](C4=CC(=O)OC4)CC[C@]32O)C1" : 0.12
